Quick reference for TGI among some molecules
# Test system: SN12C renal
# protocol: NCI tumour cell line growth inhibition, 48 h

O=[N+]([O-])c1ccc(Oc2c(Cl)cc(S(=O)(=O)/N=C(\NO)Nc3ccc(Cl)cc3)cc2Cl)c(Cl)c1
27.4 µM
CN(C)CCCNC(=O)CCNC(=O)c1cc(NC(=O)c2cc(NC(=O)c3cc(NC(=O)c4nccn4C)cn3C)cn2C)cn1C
> 100 µM
C[C@]12CC[C@@H]3c4cc(O)c(O)cc4CC[C@H]3[C@@H]1CC[C@@H]2O
> 100 µM

## Input So what's the measured TGI for this one? O=C(O)c1cc2c(cc1CC(Cc1ccc3c(c1)CCCC3)C(=O)O)CCCC2 (stereo not given)
## Output > 100 µM

## Input So what's the measured TGI for this one? CCOC(=O)Cn1c(=O)c2nc(SC)sc2n(-c2ccccc2)c1=S
## Output > 100 µM

## Input So what's the measured TGI for this one? CC(N)(/C=C/c1ccccc1)C(=O)O (stereo not given)
## Output > 100 µM

## Input So what's the measured TGI for this one? Nc1nc(Cl)cc(NCC(O)CO)n1 (stereo not given)
## Output > 100 µM

## Input So what's the measured TGI for this one? O=C1C=CC2(C=C1)CCNC1=C2C(=O)c2ccccc2C1=O
## Output > 100 µM

## Input So what's the measured TGI for this one? c1ccc2cc(NCNc3ccc4ccccc4c3)ccc2c1
## Output 25.8 µM

## Input So what's the measured TGI for this one? COc1ccc2c(c1)CC[C@@H]1[C@@H]2CC[C@]2(C)c3c(cc(C(=O)O)c4sccc34)C[C@@H]12
## Output 41.3 µM

* * *

# System: KM12 colon
# protocol: NCI tumour cell line growth inhibition, 48 h
quantity.name: TGI (µM)
A number alone suffices; assume µM.

O=C(/C(=C/c1ccc([N+](=O)[O-])cc1)SCc1ccc(Cl)cc1)c1ccc(F)cc1
8.08

Now, please, on to the next molecule.
## Input So what's the measured TGI for this one? S=C(NCCNC(=S)[S][Sn]([c]1ccccc1)([c]1ccccc1)[c]1ccccc1)[S][Sn]([c]1ccccc1)([c]1ccccc1)[c]1ccccc1
## Output 0.0652

* * *

# Test system: SF-295 CNS
# protocol: NCI tumour cell line growth inhibition, 48 h; in the data active means GI50 below about 0.43 µM; inactive means the rest
Field 'call' accepts 1 (active), -1 (inactive)

Look over these answered cases.
CC[C@@H](C(=O)[C@H](C)[C@H](O)[C@@H](C)[C@H]1O[C@H]([C@@H](CC)C(=O)N(CC)CC)CC[C@H]1C)C1O[C@]2(C=C[C@@H](O)[C@]3(CC[C@@](C)([C@H]4CC[C@](O)(CC)[C@H](C)O4)O3)O2)[C@H](C)C[C@@H]1C (stereo not given in full)
-1
COc1ccc2c(c1)oc(=O)c1cc(OC)ccc12
-1
C[C@]12CC[C@@H]3c4cc(O)c(O)cc4CC[C@H]3[C@@H]1CC[C@@H]2O
-1
CCCCCCn1c(-c2ccc(C(=O)O/N=C(\N)c3ccc4ccccc4c3)cc2)nc(-c2ccccc2)c1-c1ccccc1
-1
COc1ccc2c(c1)[nH]c(=O)c1c3ccccc3cn21
1

## Input Please share the test call associated with CCOC(=O)Nc1nc2ccc(Br)cc2s1 .
## Output -1

## Input Please share the test call associated with CCNC(=O)Nc1ccc(Oc2ccnc3ccc4c(ccn4C)c23)cc1 .
## Output -1

## Input Please share the test call associated with O=c1[nH]c(=O)c2cc3cc(C4CC(O)C(CO)O4)ccc3cc2[nH]1 (stereo not given) .
## Output -1

## Input Please share the test call associated with Cn1cc(C2=C(c3c4n(c5ccccc35)CCC(CN)C4)C(=O)NC2=O)c2ccccc21 (stereo not given) .
## Output -1

## Input Please share the test call associated with N/C(=N/N=C/c1ccccc1)N/N=C\c1ccccc1 .
## Output -1

Values compiled from PubChem BioAssay (NCI).
